Measured pKd values are reported for all entries that follow.
Target: T1, human SEMA4A expressed on cells (UniProt ID Q9H3S1, isoform 1) (human, UniProt Q9H3S1 33-761)
T1 construct: Cell-surface SEMA4A: endogenous on MM.1S, NCI-H929 and Karpas-25 cells, or expi293 cells transfected with Origene SC323738; also called human Semaphorin4A; SEMA4A endogenously expressed on MM.1S cells
T1 sequence: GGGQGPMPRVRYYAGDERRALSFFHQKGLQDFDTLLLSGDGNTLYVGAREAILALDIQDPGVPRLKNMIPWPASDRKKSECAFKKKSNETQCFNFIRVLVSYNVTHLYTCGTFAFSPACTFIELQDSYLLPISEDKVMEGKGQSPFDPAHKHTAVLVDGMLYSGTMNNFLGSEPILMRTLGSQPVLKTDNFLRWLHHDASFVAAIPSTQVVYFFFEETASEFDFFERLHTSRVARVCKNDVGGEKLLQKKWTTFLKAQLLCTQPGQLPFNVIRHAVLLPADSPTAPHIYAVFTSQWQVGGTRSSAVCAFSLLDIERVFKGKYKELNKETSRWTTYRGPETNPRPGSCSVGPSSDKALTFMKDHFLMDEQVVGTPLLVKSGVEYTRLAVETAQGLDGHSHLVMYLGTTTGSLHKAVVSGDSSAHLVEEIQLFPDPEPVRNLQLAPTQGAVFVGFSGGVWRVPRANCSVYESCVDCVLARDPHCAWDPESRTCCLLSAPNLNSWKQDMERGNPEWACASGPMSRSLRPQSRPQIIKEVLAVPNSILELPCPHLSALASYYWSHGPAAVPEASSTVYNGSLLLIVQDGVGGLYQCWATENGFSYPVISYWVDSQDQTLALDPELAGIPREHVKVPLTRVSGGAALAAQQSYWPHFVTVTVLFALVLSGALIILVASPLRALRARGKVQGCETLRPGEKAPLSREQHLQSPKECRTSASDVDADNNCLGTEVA
Assay: flow cytometry on NCI-H929 cells endogenously expressing human SEMA4A, 10-point titration
Reminder that pKd means the negative base-10 logarithm of the concentration expressed in mol/L.

Example entries begin here.
1. 5Hg2-5Lg2 human Alya IgG1 conjugated to McMMAF (antibody, V domains shown, McMMAF on the engineered cysteines 239iCys and S442C (EU numbering) of the heavy constant region, Antibody-drug conjugate; human IgG1 Alya constant; also called 5Hg2/5Lg2-McMMAF) VH: QVQLVQSGAEVKKPGASVKVSCKASGYTFTDYWMHWVRQAPGQRLEWMGAIDTSDSYTSYNQKFKGRVTITRDTSASTAYMELSSLRSEDTAVYYCARDYGNFYYYAMDYWGQGTLVTVSS VL: QAVVTQEPSLTVSPGGTVTLTCRSSTGAVTTSNYANWFQQKPGQAPRTLIYGTNNRAPWTPARFSGSLLGGKAALTLLGAQPEDEAEYYCALWYSNHWVFGGGTKLTVL; 8.61
2. 5Hg1-5Lg1 human Alya IgG1 conjugated to McMMAF (antibody, V domains shown, McMMAF on the engineered cysteines 239iCys and S442C (EU numbering) of the heavy constant region, Antibody-drug conjugate; human IgG1 Alya constant; also called 5Hg1/5Lg1-McMMAF) VH: QVQLVQSGAEVKKPGASVKVSCKASGYTFTDYWMHWVRQAPGQGLEWMGAIDTSDSYTSYNQKFKGRVTMTRDTSTSTVYMELSSLRSEDTAVYYCARDYGNFYYYAMDYWGQGTLVTVSS VL: QAVVTQEPSLTVSPGGTVTLTCRSSTGAVTTSNYANWFQQKPGQAPRTLIYGTNNRAPWTPARFSGSLLGGKAALTLSGAQPEDEAEYYCALWYSNHWVFGGGTKLTVL; 8.84
3. C0120903 human Alya IgG1 conjugated to McMMAF (antibody, V domains shown, McMMAF on the engineered cysteines 239iCys and S442C (EU numbering) of the heavy constant region, Antibody-drug conjugate; human IgG1 Alya constant; also called C0120903-McMMAF) VH: EVQLVQSGAEVKKPGSSMKVSCKASGGTFNSYTINWVRQAPGQGLEWVGGFIPIFGTADYAQKFHGRVAITADESMSTAYMELSSLRSEDTAVYYCARAPLGSEPFDYWGQGTMVTVSS VL: SYVLTQPPSVSVAPGQTARITCGGNNIGSKSVHWYQQKPGQAPVLVVYDDSDRPSGIPERFSGSNSGNTATLTISRVEAGDEADYYCQVWDSSSDHLVFGGGTKLTVL; 8.01
4. C0120906 human Alya IgG1 conjugated to McMMAF (antibody, V domains shown, McMMAF on the engineered cysteines 239iCys and S442C (EU numbering) of the heavy constant region, Antibody-drug conjugate; human IgG1 Alya constant; also called C0120906-McMMAF) VH: EVQLVQSGPEVKKPGASVKISCKASGYKLNDPGVHGVSWVRQAPGQGLEWMGWISTLNGDTRYAQKFQGRVTMATDSSTSTIYMDLRSLKSDDTALYYCARDDYTAIFDFWGRGTLVTVSS VL: QSVLTQPPSVSVAPGQTASITCGGSNIGSQSVHWYQQKPGQAPVLVVYDDSDRPSGIPERFSGSKSGNTASLILSRVEAGDEADYYCQVWDSSTDHHVFGTGTKVTVL; 8.01

Recorded pKd for mouse 5E3 as human Alya IgG1 conjugated to McMMAF (antibody, V domains shown, McMMAF on the engineered cysteines 239iCys and S442C (EU numbering) of the heavy constant region, Antibody-drug conjugate; human IgG1 Alya constant, drug-to-antibody ratio of four; also called Mouse 5E3-McMMAF) VH: QVQLQQPGAELVMPGASVKMSCKASGYTFTDYWMHWVKQRPGQGLEWIGAIDTSDSYTSYNQKFKGKATLTVDESSSTAYMQLSSLTSEDSAVYYCARDYGNFYYYAMDYWGQGTSVTVSS VL: QAVVTQESALTTSPGETVTLTCRSSTGAVTTSNYANWVQEKPDHLFTGLIGGTNNRAPGVPARFSGSLIGDKAALTITGAQTEDEAIYFCALWYSNHWVFGGGTKLTVL , please?
8.50

Ok, now C0120914 human Alya IgG1 conjugated to McMMAF (antibody, V domains shown, McMMAF on the engineered cysteines 239iCys and S442C (EU numbering) of the heavy constant region, Antibody-drug conjugate; human IgG1 Alya constant; also called C0120914-McMMAF) VH: QVQLQESGPGLVKPSETLSLTCTVSGGSVSSGRYDWSWIRQPPGKGLEWIGHIYYTGITDYNPSLRSRVTISADKPKNQFSLKLNSVTAADTAVYYCARGPFFDPWGQGTMVTVSS VL: QSVLTQPPSVSVAPGQTASLTCGANNIGSKSVQWYQQKPGQAPVLVVYDGSDRPSGIPDRFSGSSSENTATLTISRVEAGDEADYYCQLWDSVTDRPVFGGGTKVTVL
8.04
